Cited source: paper PMC10051811

Assay: Micafungin plasma pharmacokinetics in neonates and young infants (HPLC)
Assay type: in vivo, human
Details: human, iv, age >120 days (n = 13), 8-15 mg/kg/day iv, mean ± SD, SD, read-out: Half-life (converted)
*1 amine or outer side, *2 acyl side, *3 side chain or, on linkers, in order; H or OH if unused. Where a SMILES comes first, the peptide text is derived from it. Bridges are numbered along the chain shown (N, C = ends). [ ]: non-standard residue; d: D form. The star is where a group is joined. hTyr(3S-OH,4S-OH,3'-OSO3H) = N[C@H](C(=O)O)[C@H](O)[C@@H](O)c1ccc(O)c(OS(=O)(=O)O)c1; Orn(4R-OH,5R-OH) = O=C([C@H](C[C@@H](O)[C@@H](O)N[*:3])N[*:1])[*:2]; Pro(3S-OH,4S-Me) = C[C@H]1CN[C@H](C(=O)O)[C@H]1O; X1 = CCCCCOc1ccc(-c2cc(-c3ccc(C(=O)*)cc3)no2)cc1; Gln(3R-OH) = NC(=O)C[C@@H](O)[C@H](N)C(=O)O; Hyp = O=C(O)[C@@H]1C[C@@H](O)CN1

compound	half-life
CCCCCOc1ccc(-c2cc(-c3ccc(C(=O)N[C@H]4C[C@@H](O)[C@@H](O)NC(=O)[C@@H]5[C@@H](O)[C@@H](C)CN5C(=O)[C@H]([C@H](O)CC(N)=O)NC(=O)[C@H]([C@H](O)[C@@H](O)c5ccc(O)c(OS(=O)(=O)O)c5)NC(=O)[C@@H]5C[C@@H](O)CN5C(=O)[C@H]([C@@H](C)O)NC4=O)cc3)no2)cc1 [micafungin] (X1-[Orn(4R-OH,5R-OH)]T[Hyp][hTyr(3S-OH,4S-OH,3'-OSO3H)][Gln(3R-OH)][Pro(3S-OH,4S-Me)]; lactam 1-C)	14.4 h

====

Assay: Micafungin plasma pharmacokinetics in neonates and young infants (HPLC)
Assay type: in vivo, human
Details: human, iv, 8 mg/kg/day, Patient 3, dose 8 mg/kg/day iv, HPLC, read-out: Plasma values after 8 h
*1 amine or outer side, *2 acyl side, *3 side chain or, on linkers, in order; H or OH if unused. Where a SMILES comes first, the peptide text is derived from it. Bridges are numbered along the chain shown (N, C = ends). [ ]: non-standard residue; d: D form. The star is where a group is joined. hTyr(3S-OH,4S-OH,3'-OSO3H) = N[C@H](C(=O)O)[C@H](O)[C@@H](O)c1ccc(O)c(OS(=O)(=O)O)c1; Orn(4R-OH,5R-OH) = O=C([C@H](C[C@@H](O)[C@@H](O)N[*:3])N[*:1])[*:2]; Pro(3S-OH,4S-Me) = C[C@H]1CN[C@H](C(=O)O)[C@H]1O; X1 = CCCCCOc1ccc(-c2cc(-c3ccc(C(=O)*)cc3)no2)cc1; Gln(3R-OH) = NC(=O)C[C@@H](O)[C@H](N)C(=O)O; Hyp = O=C(O)[C@@H]1C[C@@H](O)CN1

compound	units symbol	level at 8 h
CCCCCOc1ccc(-c2cc(-c3ccc(C(=O)N[C@H]4C[C@@H](O)[C@@H](O)NC(=O)[C@@H]5[C@@H](O)[C@@H](C)CN5C(=O)[C@H]([C@H](O)CC(N)=O)NC(=O)[C@H]([C@H](O)[C@@H](O)c5ccc(O)c(OS(=O)(=O)O)c5)NC(=O)[C@@H]5C[C@@H](O)CN5C(=O)[C@H]([C@@H](C)O)NC4=O)cc3)no2)cc1 [micafungin] (X1-[Orn(4R-OH,5R-OH)]T[Hyp][hTyr(3S-OH,4S-OH,3'-OSO3H)][Gln(3R-OH)][Pro(3S-OH,4S-Me)]; lactam 1-C)	ng/mL	16800
